B1: tRNA (parent)
chain: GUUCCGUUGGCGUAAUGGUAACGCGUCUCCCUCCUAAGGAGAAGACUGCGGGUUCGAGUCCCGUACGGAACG

- Variants of: B1
- Protocol notes: yeast fitness relative to wild type (ratio to wild type); higher = fitter; tRNA-Arg(CCU), competitive growth, 37 C, YPD
Variants at the floor of the assay were thinned out.
Reported metric: yeast fitness
The answer should be written as a number, with no unit following it.

Prompt line: Any idea what its yeast fitness is? The variant is C55U C61G A65G G68A
Response line: 0.584

Prompt line: Entry under review: C30U C49G C61U . Reported yeast fitness?
Response line: 0.547

Prompt line: Quick one: yeast fitness for A15C C55U ?
Response line: 0.625

Prompt line: Any idea what yeast fitness was measured for C24U G44A C49A U59A ?
Response line: 0.528

Prompt line: yeast fitness lookup needed for A14G G51A A57C , thanks.
Response line: 0.742

Prompt line: Consider the variant shown here: G41C G68C What is its recorded yeast fitness?
Response line: 0.774

Prompt line: // lookup yeast fitness for C5G G25C C49U
Response line: 0.689

Prompt line: Consider the variant U2G U8A G23A U26G A43G and give its measured yeast fitness.
Response line: 0.576

Prompt line: For G25A A65U G68C , what is its reported yeast fitness?
Response line: 0.657

Prompt line: Param item = C30U C31U A57G ; retrieve measured yeast fitness.
Response line: 0.75
